Hello, the source for this data is the supplement of paper PMC5908809, in case you need it.

Hi there, I'd appreciate the recorded percent inhibition of viability for every entry that follows.
- System: KAI3 (IL-2 2.5 ng/mL);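 note: normalised to DMSO-only wells as negative and benzethonium chloride as positive control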
- assay.notes: percent inhibition of viability; higher = more inhibition
- measurement.conditions: 72 h; 10000 nM
One number for each entry, in %.

molecule	experimental.target	percent inhibition of viability [%]
C[C@@H]1C[C@H]2[C@@H]3CCC4=CC(=O)C=C[C@]4(C)[C@@]3(F)[C@@H](O)C[C@]2(C)[C@@]1(O)C(=O)CO [Dexamethasone] (max concentration tested 10000 nM)	KAI3 (IL-2 2.5 ng/mL)	31.2

Batch request: percent inhibition of viability per item, same order as input.
1. NS(=O)(=O)OC[C@@H]1C[C@@H](n2ccc3c(N[C@H]4CCc5ccccc54)ncnc32)C[C@@H]1O [Pevonedistat] (max concentration tested 10000 nM)
2. O=C(CCCCCCNC(=O)c1cnc(N(c2ccccc2)c2ccccc2)nc1)NO [Rocilinostat] (max concentration tested 10000 nM)

100
96.6
